The values you see were collected from ChEMBL document CHEMBL1139996.

test: Inhibition of rice KARI; set-up: species or system Oryza sativa
property_measured: pKi
Give bare numbers, as −log10 of the molar value.

Tell me the measured pKi of N#CC1(C(=O)O)CC1 , please. 4.02

----------
test system: Oryza sativa; assay: Inhibition of rice KARI at 200 ppm
property_measured: inhibition (%)
Give bare numbers, in %.

Reference set, count: 5
I am curious: what inhibition value has been reported for N#CC1(C(=O)Nc2cc(Cl)c(Cl)cc2Cl)CC1 ? 0

State the recorded inhibition for this entry: Cc1ccc(NC(=O)C2(C#N)CC2)cc1 61.2

Given the entry CCOC(=O)C1(C#N)CC1 , report its measured inhibition. 0

Which value of inhibition has been reported for N#CC1(C(=O)Nc2ccccc2)CC1 in the records? 77.2

Please look up its inhibition: N#CC1(C(=O)Nc2ccc(Br)cc2)CC1 32.2

# return inhibition for each item in the list
1. N#CC1(C(=O)Nc2ccc(C(F)(F)F)cc2)CC1
2. N#CC1(C(=O)Nc2ccc(Cl)cc2)CC1

1. 0
2. 93.9

Parameter requested: inhibition. Apply to each item below.
1. N#CC1(C(=O)Nc2ccc(Cl)cc2Cl)CC1
2. N#CC1(C(=O)Nc2ccccc2C(F)(F)F)CC1
3. Cc1ccccc1NC(=O)C1(C#N)CC1
4. N#CC1(C(=O)NCCO)CC1
5. N#CC1(C(=O)Nc2cccc(C(F)(F)F)c2)CC1

1: 97; 2: 0; 3: 100; 4: 98.9; 5: 0
